System name: ΔF508-CFTR (Homo sapiens, UniProt P13569, DEL508-508)
Sequence (P13569 with tags, fused parts or gaps DEL508-508): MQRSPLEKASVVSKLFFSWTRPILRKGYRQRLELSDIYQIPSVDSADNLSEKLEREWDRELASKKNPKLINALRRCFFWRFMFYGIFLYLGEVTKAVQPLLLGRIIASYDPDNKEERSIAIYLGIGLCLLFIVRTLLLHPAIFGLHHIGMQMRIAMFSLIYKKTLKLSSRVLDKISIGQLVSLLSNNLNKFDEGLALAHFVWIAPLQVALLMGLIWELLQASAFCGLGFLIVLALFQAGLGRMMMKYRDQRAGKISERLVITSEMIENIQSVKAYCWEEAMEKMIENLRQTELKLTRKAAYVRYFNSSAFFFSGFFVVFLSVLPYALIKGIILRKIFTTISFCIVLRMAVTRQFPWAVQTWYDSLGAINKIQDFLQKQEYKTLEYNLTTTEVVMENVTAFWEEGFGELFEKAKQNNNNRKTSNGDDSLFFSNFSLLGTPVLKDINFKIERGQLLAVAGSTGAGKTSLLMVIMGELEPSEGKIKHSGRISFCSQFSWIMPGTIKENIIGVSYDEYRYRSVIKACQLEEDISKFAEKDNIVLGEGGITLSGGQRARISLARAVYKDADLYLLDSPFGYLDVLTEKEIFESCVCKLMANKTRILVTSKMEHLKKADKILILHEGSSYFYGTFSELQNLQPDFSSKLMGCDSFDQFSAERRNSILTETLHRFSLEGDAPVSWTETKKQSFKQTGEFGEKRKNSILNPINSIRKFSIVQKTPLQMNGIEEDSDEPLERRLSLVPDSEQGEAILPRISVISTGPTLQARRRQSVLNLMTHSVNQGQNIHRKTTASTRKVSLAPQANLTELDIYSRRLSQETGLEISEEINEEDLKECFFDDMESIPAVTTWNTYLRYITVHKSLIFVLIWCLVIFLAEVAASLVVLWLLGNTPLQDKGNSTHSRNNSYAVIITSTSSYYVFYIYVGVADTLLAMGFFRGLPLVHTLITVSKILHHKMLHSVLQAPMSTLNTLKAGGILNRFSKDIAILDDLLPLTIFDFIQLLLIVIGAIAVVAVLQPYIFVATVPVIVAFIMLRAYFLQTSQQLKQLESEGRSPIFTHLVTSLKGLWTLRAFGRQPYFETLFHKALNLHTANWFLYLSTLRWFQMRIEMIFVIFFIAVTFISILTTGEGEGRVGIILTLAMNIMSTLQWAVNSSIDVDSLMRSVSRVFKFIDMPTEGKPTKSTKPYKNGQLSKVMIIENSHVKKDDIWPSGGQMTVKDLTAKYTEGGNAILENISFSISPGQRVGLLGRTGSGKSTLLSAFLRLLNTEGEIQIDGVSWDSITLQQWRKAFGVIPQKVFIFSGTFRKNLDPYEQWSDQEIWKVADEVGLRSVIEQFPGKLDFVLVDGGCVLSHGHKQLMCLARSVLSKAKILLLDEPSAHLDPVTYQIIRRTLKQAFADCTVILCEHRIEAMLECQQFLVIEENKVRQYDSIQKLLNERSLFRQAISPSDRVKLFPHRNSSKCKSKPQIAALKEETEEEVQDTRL
Protocol summary: Membrane potential optical assay for identification of ΔF508-CFTR potentiators (FLIPR III, forskolin activation)
Condition context: temperature-corrected ΔF508 CFTR NIH 3T3 cells
Measure name: EC50

{"Molecule": "O=C(Nc1ccc(N2[C@@H]3CC[C@H]2[C@H](O)C3)cc1C(F)(F)F)c1c[nH]c2cccc(C(F)(F)F)c2c1=O (relative stereo)", "EC50": "< 2000 nM"}
{"Molecule": "O=C(Nc1ccc(N2C3CCC2[C@H](O)C3)cc1C(F)(F)F)c1c[nH]c2cccc(C(F)(F)F)c2c1=O (stereo partly drawn)", "EC50": "< 2000 nM"}

Requested read-out: EC50. Entry: O=C(Nc1ccc(N2C3CCC2CC3)cc1C(F)(F)F)c1c[nH]c2cccc(C(F)(F)F)c2c1=O
< 2000 nM
